Hello, the source for this data is ChEMBL document CHEMBL1133520, in case you need it.

half-life for assorted compounds
Experiment: Half life period of the compound
Type: ADME
valueKind: half-life (h)

{"columns": ["inputSmiles", "endpointValue"],
 "data": [
  ["N=C(N)c1ccc2[nH]cc(CC(=O)Nc3ccc(-c4ccccc4S(N)(=O)=O)cc3Br)c2c1", 1.8],
  ["N=C(N)c1ccc2[nH]cc(CC(=O)Nc3ccc(-c4ccccc4S(N)(=O)=O)cc3F)c2c1", 2.5],
  ["N=C(N)c1ccc2[nH]cc(CC(=O)Nc3ccc(-c4ccccc4S(N)(=O)=O)cc3Cl)c2c1", 1.75],
  ["N=C(N)c1ccc2[nH]cc(CC(=O)Nc3ccc(-c4ccccc4S(N)(=O)=O)cn3)c2c1", 0.4],
  ["N=C(N)c1ccc2[nH]cc(CC(=O)Nc3ccc(-c4ccccc4S(N)(=O)=O)cc3)c2c1", 0.79]
]}
